Subject of test: HLA-A*33:01
Assay details: IEDB peptide-MHC binding, purified MHC/competitive/radioactivity; filed as Kd, often an IC50 or EC50 that approximates it; bounds were set here for any values at or beyond the usual limits of such assays
Measurement context: source organism: Vaccinia virus WR
Each entry below carries its reported Kd.
Measurement kind: Kd (µM)

biosequence=NITLKIIETY subject_of_test=HLA-A*33:01 measurement_kind=Kd cmp=≥ numeric_readout=20.7
biosequence=ITDNGPMPY subject_of_test=HLA-A*33:01 measurement_kind=Kd cmp== numeric_readout=1.6
biosequence=VIILAALFMY subject_of_test=HLA-A*33:01 measurement_kind=Kd cmp=≥ numeric_readout=70
biosequence=SIPISELSR subject_of_test=HLA-A*33:01 measurement_kind=Kd cmp== numeric_readout=9.74
biosequence=KAPNVISSK subject_of_test=HLA-A*33:01 measurement_kind=Kd cmp=≥ numeric_readout=22.6
biosequence=VADLSARNK subject_of_test=HLA-A*33:01 measurement_kind=Kd cmp== numeric_readout=11.7
biosequence=CLEWLRAKR subject_of_test=HLA-A*33:01 measurement_kind=Kd cmp== numeric_readout=0.438
biosequence=ILAEYIRHR subject_of_test=HLA-A*33:01 measurement_kind=Kd cmp== numeric_readout=0.0484
biosequence=ISSVLTILYY subject_of_test=HLA-A*33:01 measurement_kind=Kd cmp== numeric_readout=1.43
biosequence=WIKDIMTSTR subject_of_test=HLA-A*33:01 measurement_kind=Kd cmp== numeric_readout=0.064
biosequence=QFVDINRNNK subject_of_test=HLA-A*33:01 measurement_kind=Kd cmp== numeric_readout=0.763
biosequence=MLEGETKLY subject_of_test=HLA-A*33:01 measurement_kind=Kd cmp=≥ numeric_readout=57.1
biosequence=LLHCVTESYK subject_of_test=HLA-A*33:01 measurement_kind=Kd cmp== numeric_readout=3.27
biosequence=IVPEFAKQY subject_of_test=HLA-A*33:01 measurement_kind=Kd cmp=≥ numeric_readout=42.9
biosequence=DMMFINSTCY subject_of_test=HLA-A*33:01 measurement_kind=Kd cmp== numeric_readout=0.883
biosequence=DLIKKSDAK subject_of_test=HLA-A*33:01 measurement_kind=Kd cmp== numeric_readout=6.63
biosequence=FISDNKKEY subject_of_test=HLA-A*33:01 measurement_kind=Kd cmp=≥ numeric_readout=77.7
biosequence=VLFVKKMLPK subject_of_test=HLA-A*33:01 measurement_kind=Kd cmp== numeric_readout=13.5
biosequence=FIKYVNGWVK subject_of_test=HLA-A*33:01 measurement_kind=Kd cmp== numeric_readout=0.111
biosequence=RLLHCVTESY subject_of_test=HLA-A*33:01 measurement_kind=Kd cmp== numeric_readout=6.94
biosequence=ITPTIEDDK subject_of_test=HLA-A*33:01 measurement_kind=Kd cmp=≥ numeric_readout=77.7
